test: Selectivity index, ratio of IC50 for binding affinity to HSP90beta (unknown origin) to IC50 for binding affinity to HSP90alpha (unknown origin)
Below, each of the compounds is paired with its reported Ratio IC50 value.

# example entries with known answers
| STRUCTURE_AS_SMILES | Ratio IC50 |
| --- | --- |
| Cc1ccc(Sc2cc(C(=O)N3Cc4ccc(OCC[N+](C)(C)Cc5ccccc5)cc4C3)ccc2O)cc1C | > 104 |
| Cc1ccc(Sc2cc(C(=O)N3Cc4ccc(OCCC[N+](C)(C)Cc5ccccc5)cc4C3)ccc2O)cc1C.O=C([O-])C(F)(F)F | > 104 |
| Cc1ccc(Sc2cc(C(=O)N3Cc4ccc(OCCC[N+](C)(C)[O-])cc4C3)ccc2O)cc1C | > 2 |

Here is another compound to look at.
Memo: `CC[N+](C)(C)CCCCOc1ccc2c(c1)CN(C(=O)c1ccc(O)c(Sc3ccc(C)c(C)c3)c1)C2` , reported Ratio IC50: > 12

###

test: Selectivity index, ratio of IC50 for binding affinity to HSP90beta (unknown origin) to IC50 for binding affinity to HSP90alpha (unknown origin)
Below, each of the compounds is paired with its reported Ratio IC50 value.

Memo: `Cc1ccc(Sc2cc(C(=O)N3Cc4ccc(OCCCC[N+](C)(C)C)cc4C3)ccc2O)cc1C` , reported Ratio IC50: > 13

Memo: `Cc1ccc(Sc2cc(C(=O)N3Cc4ccc(OCCCCN(C)C)cc4C3)ccc2O)cc1C` , reported Ratio IC50: > 126

Memo: `CC[N+](C)(C)CCOc1ccc2c(c1)CN(C(=O)c1ccc(O)c(Sc3ccc(C)c(C)c3)c1)C2` , reported Ratio IC50: > 12

###

test: Antiproliferative activity against human MCF-10A cells assessed as inhibition of cell growth incubated for 72 hrs by MTS assay; assay type: toxicity, cell-based
Below, each of the molecules is paired with its reported IC50 at 72 h value.
Reply numerically in µM, unit not repeated.

| STRUCTURE_AS_SMILES | VALUE_REPORTED |
| --- | --- |
| Cc1ccc(Sc2cc(C(=O)N3Cc4ccc(OCCCN(C)C)cc4C3)ccc2O)cc1C | 11.7 |

Here is another molecule to look at.
Memo: `Cc1ccc(Sc2cc(C(=O)N3Cc4ccc(OCCN(C)C)cc4C3)ccc2O)cc1C` , reported IC50 at 72 h: 11.5

###

system: OVCAR-8; assay: Antiproliferative activity against human OVCAR-8 cells assessed as inhibition of cell growth incubated for 72 hrs by MTS assay; type: functional, cell-based; details: OVCAR-8, 72 h
EXPERIMENTAL_READOUT: pIC50
Worth noting: pIC50 values are minus log10 of concentrations stated in mol/L.

| STRUCTURE_AS_SMILES | pIC50 |
| --- | --- |
| Cc1ccc(Sc2cc(C(=O)N3Cc4ccc(OCCN(C)C)cc4C3)ccc2O)cc1C | 4.87 |

Here is another compound to look at.
Assay OVCAR-8, sample `Cc1ccc(Sc2cc(C(=O)N3Cc4ccc(OCCCN(C)C)cc4C3)ccc2O)cc1C` , pIC50 read: 4.90
